Source of measurements: patent US11724999B2

Measured SPR Response Units of individual entries
molecular target: GST-human KRas166 (G12V) GPPNHP (Homo sapiens, UniProt P01116, G12V); construct: made in house; host or cells: E. coli C41(DE3); test: KRas small-molecule screening by SPR (BIACORE T200); assay type: binding; details: compound at final concentration of 100 uM; immobilised GST-KRAS166 (G12V) GPPNHP, GST reference channel
Response body: numeric value in Response Units, unit text excluded.

Known results for compounds:
1) CN1CCN(C(=O)NC[C@@H]2COc3ccc(OCc4ccccc4)cc3O2)CC1 = 63
2) CC(C)(C)OC(=O)NCc1ccc(CN(C[C@@H]2COc3ccc(OCc4ccccc4)cc3O2)C(=O)c2ncco2)cc1 = 7
3) c1ccc(COc2ccc3c(c2)O[C@H](CNCC2COCCN2)CO3)cc1 (some centres unmarked) = 29
4) CN(C)CC(=O)N[C@H]1CC[C@@H](NC[C@@H]2COc3ccc(OCc4ccccc4)cc3O2)CC1 = 70
5) O=c1ccccn1CCN1CCN(C[C@@H]2COc3ccc(OCc4ccccc4)cc3O2)CC1 = 70

Q: Fill in SPR Response Units for record NC[C@@H]1COc2ccc(OCc3ccccc3)cc2O1
Result: 28

Q: Fill in SPR Response Units for record O=C(NCc1ccnc(F)c1)C1COc2ccc(OCc3ccccc3)cc2O1 (centres unmarked)
Result: 12

Q: Fill in SPR Response Units for record c1ccc(COc2ccc3c(c2)O[C@H](CNC2CCc4ccccc42)CO3)cc1 (some centres unmarked)
Result: 24
